Below, each entry is listed alongside its reported PBM binding z-score.
- Test system: LXRb homodimer (NR concentration 270 nM)
- test description: PBM binding z-score (relative to random genomic background probes); higher = stronger binding; sequences stand for … in GC…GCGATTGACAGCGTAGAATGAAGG

- seq string: "ACTCGGAGGACAGAGGTCAGAGCTACGCCAGTGA"
  tested on: "LXRb homodimer (NR concentration 270 nM)"
  PBM binding z-score: -0.0333
- seq string: "GATACAGGGTCAAGGCCAGAATACGCGTATTGAT"
  tested on: "LXRb homodimer (NR concentration 270 nM)"
  PBM binding z-score: 0.223
- seq string: "AAATGTAGGTTAAGGGTCATTCAGGTTGGTTCGC"
  tested on: "LXRb homodimer (NR concentration 270 nM)"
  PBM binding z-score: 1.39
- seq string: "ATATGTAGGTTAAGGGTCATGCAGGTTGGTTCGC"
  tested on: "LXRb homodimer (NR concentration 270 nM)"
  PBM binding z-score: 1.3
- seq string: "CGAACTAGGTCACCAGGACAGCGAAGAGGTTGGA"
  tested on: "LXRb homodimer (NR concentration 270 nM)"
  PBM binding z-score: -0.88
- seq string: "CCTAGTTGGTCAGGTGGTCACACACCGGATATGA"
  tested on: "LXRb homodimer (NR concentration 270 nM)"
  PBM binding z-score: -0.0912

====

- Test system: LXRa:RXRa (NR concentration 270 nM, RXRa partner concentration 90 nM)
- test description: PBM binding z-score (relative to random genomic background probes); higher = stronger binding; sequences stand for … in GC…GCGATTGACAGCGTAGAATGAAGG
Decide by PBM binding z-score: equal to or exceeding 3 means true, less means false.

- seq string: "TATCCTAGGTCAGATCGGGCCAGTATACGCTATA"
  classification: "true"
- seq string: "CAAACTAGGTCAAGAGGTCAAACTCCGCTTCCCG"
  classification: "true"
- seq string: "ATCGAAAGGGCGTGAGGTGAGTATACAGAAAGGC"
  classification: "false"
- seq string: "CCTTACGGGTCAAGGTTGTAGCACGGGTGGTACG"
  classification: "true"
- seq string: "CGAACTAGGTCAAAGGACAATGAAAGGCGACGTA"
  classification: "false"
- seq string: "TCGAGTTGGTTACGGGGGCATTCAGGGATGAAGA"
  classification: "false"
- seq string: "ATATGTGGGTTATCGGGTCATTCAGTTTGCGCAT"
  classification: "false"
- seq string: "GCTATTAGGTGAAAGGGCAACCGAATGATTCTCG"
  classification: "false"
- seq string: "ACTAGTTGGTCAGCTGAGGTAACACACAATTCGG"
  classification: "false"
- seq string: "CGAACTAGGTCACGAGGACAGTGAAGAGGTTGGA"
  classification: "false"

====

- System: FXR:RXRa (NR concentration 270 nM, RXRa partner concentration 90 nM)
- test description: PBM binding z-score (relative to random genomic background probes); higher = stronger binding; sequences stand for … in GC…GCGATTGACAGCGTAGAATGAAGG
Below, each entry is listed alongside its reported PBM binding z-score.
quantity kind: PBM binding z-score

- seq string: "TCTAGTTGGTGACGGAGGTCACACACGACGGGTA"
  reported result: 2.59
- seq string: "ATCTCTAGGTAAAGTTCATTGAAAGATCGATAGA"
  reported result: 2.67
- seq string: "ATACGTAGGTTAGGGTCATTCAGAAAGTAGGGAA"
  reported result: 4.93
- seq string: "ACTATCAGGCCAAGGGTCACTCAAGATTAGTCCG"
  reported result: 2.77
- seq string: "CGAACAAGGTCAAAGGACAGTGAAAGGCGACGTA"
  reported result: 7.69
- seq string: "CGAACTAGGTCAAAGGGCAGTGAAAGGCGACGTA"
  reported result: 5.16
- seq string: "CAATGTAGGTTAAGGGGGTCATTCAGTTTGAAAG"
  reported result: 3.39
- seq string: "CAAACTAGGTCAAAGGTCAAACTCGAGCCAACCA"
  reported result: 8.63
- seq string: "GATACAGGGGCAAGGCCAGAGTACGCGTATTGAT"
  reported result: -0.0183
- seq string: "ATATGCAGGTTAGGGTCATTCAGAAAGTAGGGAA"
  reported result: 4.84
- seq string: "CCTACTGGGCCATACAGAGGTCATTGATCATATG"
  reported result: 2.83
- seq string: "CTTAGTTGGTCAAGGTCACACACGCTATAGGTAC"
  reported result: 4.69
